target of assay: gp4-Y111A (bacteriophage T7, UniProt P03692 1-566, Y111A)
protocol text: double-filter binding; 1 mM [beta,gamma-CH2] dTTP, 10 mM MgCl2; Filter binding: 40 mM Tris-HCl pH 7.5, 50 mM potassium glutamate, 10 mM MgCl2, 5 mM DTT, 1 mM [beta,gamma-CH2] dTTP, 30 min, 25 C; mass photometry: 40 mM Tris-HCl pH 7.5, 150 mM KCl, 10 mM MgCl2, 25 C, 8.7 nM gp4 hexamer, 10 nM ssDNA
applied conditions: protein: recombinant; tags: His (implied: pET28, TALON); chain copies: 6; label: 5'-32P; single strand
reported endpoint: Kd (nM)
# output: bare number, implied unit nM

Lookup: Fill in: Kd of ATGACCATGATTTCGACGTTTTTTTTTTTGGGGATCCTCTAACCTGCGCA (ssDNA) [50-nt ssDNA, 5'-32P] is ___
Found: 93

All figures here come from paper PMC9198812.
